Molecular target: human NEP (Homo sapiens (Human))
Test: In vitro enzyme inhibition assay at human NEP
Conditions: pKi, recombinant human NEP, fluorogenic peptide substrate, 37° C.
Measurement Kind: Ki

compound="O=C(N[C@H](Cc1ccc(-c2cc(Cl)ccc2F)cc1)C[C@@H](CNCC(F)F)C(=O)O)c1cnn[nH]1 [Example 82a]" target_of_assay="human NEP (Homo sapiens (Human))" reported_measurement="≤ 1 nM"
compound="COCCNC[C@H](C[C@@H](Cc1ccc(-c2cc(Cl)ccc2F)cc1)NC(=O)c1cnn[nH]1)C(=O)O (single isomer, unassigned) [Example 49a]" target_of_assay="human NEP (Homo sapiens (Human))" reported_measurement="≤ 1 nM"
compound=CC(C)c1coc(C(=O)N[C@H](Cc2ccc(-c3cc(Cl)ccc3F)cc2)C[C@@H](CCN)C(=O)O)n1 target_of_assay="human NEP (Homo sapiens (Human))" reported_measurement="3.16 to 10 nM"
compound=CCOC[C@H](C[C@@H](Cc1ccc(-c2cccc(Cl)c2)cc1)NC(=O)c1cc(O)no1)C(=O)O target_of_assay="human NEP (Homo sapiens (Human))" reported_measurement="≤ 1 nM"

====

Biological target: human NEP (Homo sapiens (Human), UniProt P08473)
Sequence (P08473 52-750): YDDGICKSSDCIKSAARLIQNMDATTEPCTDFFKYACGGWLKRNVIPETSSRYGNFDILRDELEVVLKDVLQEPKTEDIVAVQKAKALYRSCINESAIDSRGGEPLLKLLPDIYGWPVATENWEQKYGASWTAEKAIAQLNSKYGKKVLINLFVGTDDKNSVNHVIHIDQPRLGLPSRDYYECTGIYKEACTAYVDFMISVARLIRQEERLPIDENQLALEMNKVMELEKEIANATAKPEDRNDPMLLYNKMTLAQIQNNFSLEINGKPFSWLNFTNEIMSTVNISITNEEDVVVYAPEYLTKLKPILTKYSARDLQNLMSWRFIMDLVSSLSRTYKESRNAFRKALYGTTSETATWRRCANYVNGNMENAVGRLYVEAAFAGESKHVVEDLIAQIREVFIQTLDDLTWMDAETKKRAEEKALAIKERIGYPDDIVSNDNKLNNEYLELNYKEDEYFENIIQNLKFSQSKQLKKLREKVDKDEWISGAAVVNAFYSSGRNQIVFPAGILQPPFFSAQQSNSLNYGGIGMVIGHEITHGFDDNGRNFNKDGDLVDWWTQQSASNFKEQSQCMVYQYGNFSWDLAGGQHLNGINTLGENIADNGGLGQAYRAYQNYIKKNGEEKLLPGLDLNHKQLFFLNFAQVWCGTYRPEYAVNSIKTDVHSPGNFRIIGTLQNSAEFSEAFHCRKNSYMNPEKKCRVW
Assay: In vitro enzyme inhibition assay at human NEP
Details: pKi, recombinant human NEP, fluorogenic peptide substrate, 37° C.
Entries and their measured Ki follow.
Measurement Kind: Ki

compound="O=C(N[C@H](Cc1ccc(-c2cc(Cl)ccc2F)cc1)C[C@@H](Cn1nccn1)C(=O)O)c1cnn[nH]1 [Example 61b]" target_of_assay="human NEP (Homo sapiens (Human), UniProt P08473)" reported_measurement="≤ 1 nM"
compound="CCOC[C@H](C[C@@H](Cc1ccc(-c2cc(Cl)ccc2F)cc1)NC(=O)c1cocn1)C(=O)O [Example 7-7]" target_of_assay="human NEP (Homo sapiens (Human), UniProt P08473)" reported_measurement="1.26 to 3.16 nM"
compound="CC(C)c1coc(C(=O)N[C@H](Cc2ccc(-c3cc(Cl)ccc3F)cc2)C[C@@H](NC(=O)C(C)(C)N)C(=O)O)n1 [Example 35]" target_of_assay="human NEP (Homo sapiens (Human), UniProt P08473)" reported_measurement="3.16 to 10 nM"
compound="Cc1cnc(C(=O)N[C@H](Cc2ccc(-c3cc(Cl)ccc3F)cc2)C[C@@H](N)C(=O)O)o1 [Example 16-3]" target_of_assay="human NEP (Homo sapiens (Human), UniProt P08473)" reported_measurement="1.26 to 3.16 nM"

====

Entries and their measured Ki follow.
Target: human NEP (Homo sapiens (Human), UniProt P08473)
Experiment: In vitro enzyme inhibition assay at human NEP
Conditions: pKi, recombinant human NEP, fluorogenic peptide substrate, 37° C.
Measurement Kind: Ki

compound="O=C(N[C@H](Cc1ccc(-c2cc(Cl)ccc2F)cc1)C[C@@H](CN1CC[C@H]1CO)C(=O)O)c1cnn[nH]1 [Example 95b]" measurement_kind=Ki reported_measurement="≤ 1 nM"
compound=N[C@@H](C[C@@H](Cc1ccc(-c2cc(Cl)ccc2F)cc1)NC(=O)c1cc(O)no1)C(=O)O measurement_kind=Ki reported_measurement="1.26 to 3.16 nM"
compound=N[C@H](C[C@@H](Cc1ccc(-c2cc(Cl)ccc2F)cc1Cl)NC(=O)c1cc(C2CC2)on1)C(=O)O measurement_kind=Ki reported_measurement="3.16 to 10 nM"
compound="O=C(N[C@H](Cc1ccc(-c2cc(Cl)ccc2F)cc1)C[C@@H](Cn1ccnn1)C(=O)O)c1cnn[nH]1 [Example 61a]" measurement_kind=Ki reported_measurement="≤ 1 nM"
compound=CCCc1cc(C(=O)N[C@H](Cc2ccc(-c3cc(Cl)ccc3F)cc2)C[C@@H](N)C(=O)O)no1 measurement_kind=Ki reported_measurement="1.26 to 3.16 nM"
compound=O=C(N[C@H](Cc1ccc(-c2cc(Cl)ccc2F)cc1)C[C@@H](Cc1noc(=O)[nH]1)C(=O)O)c1cnn[nH]1 measurement_kind=Ki reported_measurement="1.26 to 3.16 nM"
compound=CCOC(=O)[C@H](N)C[C@@H](Cc1ccc(-c2cc(Cl)ccc2F)cc1)NC(=O)c1cc(O)no1 measurement_kind=Ki reported_measurement="3.16 to 10 nM"
